- target_or_system: adenosine A2 receptor (Rattus norvegicus)
- Sequence (P30543 whole entry): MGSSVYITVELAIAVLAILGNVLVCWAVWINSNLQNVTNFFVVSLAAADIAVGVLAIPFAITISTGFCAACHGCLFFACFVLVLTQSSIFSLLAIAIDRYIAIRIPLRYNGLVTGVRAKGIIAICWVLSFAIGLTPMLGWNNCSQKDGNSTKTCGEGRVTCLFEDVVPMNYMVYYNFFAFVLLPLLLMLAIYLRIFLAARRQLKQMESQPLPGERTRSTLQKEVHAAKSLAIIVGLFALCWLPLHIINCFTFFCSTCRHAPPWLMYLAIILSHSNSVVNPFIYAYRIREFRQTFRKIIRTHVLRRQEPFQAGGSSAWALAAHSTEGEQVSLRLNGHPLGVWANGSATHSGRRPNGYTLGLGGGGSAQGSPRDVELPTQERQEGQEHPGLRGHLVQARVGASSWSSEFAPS
Recorded IC50 for the following molecules

smiles_string	target_or_system	IC50
Cc1nnc2c(NC3CCCC3)nc3ccccc3n12	adenosine A2 receptor (Rattus norvegicus)	6.13 µM
CCCCc1nnc2c(NC3CCCC3)nc3ccccc3n12	adenosine A2 receptor (Rattus norvegicus)	> 100 µM
CCc1nnc2c(NC3CCC3)nc3ccccc3n12	adenosine A2 receptor (Rattus norvegicus)	2.32 µM
CCc1nnc2c(NC3CCCCC3)nc3ccccc3n12	adenosine A2 receptor (Rattus norvegicus)	5.88 µM

====

- target_or_system: adenosine A1 receptor (Rattus norvegicus)
- Construct: Whole brain minus cerebellum and brainstem from male Long-Evans rats (150-200 g) is homogenized
- Sequence (P25099 whole entry): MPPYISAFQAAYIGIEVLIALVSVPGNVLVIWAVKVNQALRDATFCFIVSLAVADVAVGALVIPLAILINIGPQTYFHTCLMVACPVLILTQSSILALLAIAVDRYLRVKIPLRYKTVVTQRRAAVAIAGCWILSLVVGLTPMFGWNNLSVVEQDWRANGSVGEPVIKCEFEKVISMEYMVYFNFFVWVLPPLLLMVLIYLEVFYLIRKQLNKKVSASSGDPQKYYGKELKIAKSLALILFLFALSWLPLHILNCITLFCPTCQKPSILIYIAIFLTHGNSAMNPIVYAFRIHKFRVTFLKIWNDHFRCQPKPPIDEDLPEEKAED
- measurement_description: Adenosine Receptor Binding--A1 Receptor Affinity (RBA1), [3H]-CHA, rat whole brain minus cerebellum and brainstem membranes
- cond: 1.0 nM [3H]-CHA, pH 7.7, 25° C., one hour, read-out: RBA-1 (IC50, adenosine A1 receptor affinity)
Listing: IC50 of selected compounds

compound	IC50 (nM)
CCCCc1nnc2c(NC3CCCC3)nc3ccccc3n12 [Example 5]	101
c1ccc2c(c1)nc(NC1CCCC1)c1nncn12 [Example 1]	331
Cc1nnc2c(NC3CCCC3)nc3ccccc3n12 [Example 2]	71
CCc1nnc2c(NC3CC3)nc3ccccc3n12 [Example 6]	487
FC(F)(F)c1nnc2c(NC3CCCC3)nc3ccccc3n12 [Example 13]	12.5
CCc1nnc2c(NC[C@H](C)O)nc3ccccc3n12 [Example 10]	554
CCc1nnc2c(NC3CCC3)nc3ccccc3n12 [Example 7]	109
CCc1nnc2c(NC3CCCCC3)nc3ccccc3n12 [Example 8]	146
CCc1nnc2c(NC3CCCC3)nc3ccccc3n12 [Example 3]	49.7
CCc1nnc2c(Nc3ccccc3)nc3ccccc3n12 [Example 11]	982
CCc1nnc2c(N[C@@H]3C[C@H]4CC[C@@H]3C4)nc3ccccc3n12 (relative stereo) [Example 9]	74
CCCc1nnc2c(NC3CCCC3)nc3ccccc3n12 [Example 4]	68
